- run description: Cytotoxicity against MRC-5 fibroblasts
- measurement context: human, MRC-5 fibroblasts, MRC-5 EC50, Table 2; cytotoxicity
pEC50: −log10 of the molar value.
recorded endpoint: pEC50

1. Cc1ccc(-c2cn([C@@H]3O[C@H](CO)C[C@H]3O)c3ncnc(N)c23)cc1: 4.68
2. Nc1ncnc2c1c(F)cn2[C@@H]1O[C@H](CO)C[C@H]1O: 5.44
3. Nc1ncnc2c1c(-c1ccc(Cl)cc1Cl)cn2[C@@H]1O[C@H](CO)C[C@H]1O: 4.71
4. Nc1ncnc2c1c(C#Cc1ccccc1)cn2[C@@H]1O[C@H](CO)C[C@H]1O: 5.02
5. Nc1ncnc2c1c(/C=C/c1ccccc1)cn2[C@@H]1O[C@H](CO)C[C@H]1O: 4.31
6. Cc1ccc(-c2cn([C@@H]3O[C@H](CO)C[C@H]3O)c3ncnc(N)c23)cc1Cl: 4.75
7. Nc1ncnc2c1c(-c1ccc(Cl)c(Cl)c1)cn2[C@@H]1O[C@H](CO)C[C@H]1O: 4.87
